src = patent US20260116991A1

molecular target: T1, human GPC3 on CHO-K1-human GPC3 cells (CHOK1-hGPC3.2B5) (human, UniProt P51654 25-554); assay: FACS, CHOK1-hGPC3.2B5 cells;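 note: flow cytometry of humanized antibodies binding to the cells over one hour in the cold, read as cell mean fluorescence intensity, with EC50 obtained by curve fitting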
T1 construct: whole, on cells
experimental-endpoint: Max MFI (MFI)
Give just the numeric value; MFI need not be written.

INSERT INTO assay_data (binder, unit_abbreviation, observed_result) VALUES
  ('hAb005LH3L1b (antibody, human IgG1, V domains shown, Humanized F3.54.12; VH H3 + VL L1b; expressed as human IgG1) VH: EVQLVQSGAEVKKPGASVKVSCKASGYTFTDYEMHWVRQAPGQGLEWIGAIDPETGNTAYIQKFKGRATLTTDKSTSTAYMELRSLRSDDTAVYYCTRFYSYSHWGQGTTVTVSS VL: DIVMTQTPLSLPVTPGEPASISCRSSQSLVHSNRNTYLHWYLQKPGQSPQLLIYKVSNRFSGVPDRFSGSGSGTDFTLKISRVEAEDVGVYYCSQNTHVPPTFGGGTKVEIK', 'MFI', 4740);

Please find the next binder below.
Ask: Could you share which Max MFI value was measured for hAb006LH2L1b (antibody, human IgG1, V domains shown, Humanized F3.38.7; VH H2 + VL L1b; expressed as human IgG1) VH: EVQLVQSGAEVKKPGSSVKVSCKASGYTFTDYEIHWVRQAPGQGLEWMGAIDPKTGNTAYNQKFMGRVTITADKSTSTAYMELSSLRSEDTAVYYCTRYFSFAYWGQGTLVTVSS VL: DIVMTQTPLSLPVTPGEPASISCRSSQTFVHSNANTYLQWYLQKPGQSPQLLIYKVSNRFSGVPDRFSGSGSGTDFTLKISRVEAEDVGVYYCFQGSHVPYTFGQGTKLEIK ?
Reply: 4790
